Biological target: 5-HT2AR (Homo sapiens, UniProt P28223)
Construct: expressed in transfected cells; host or cells: HEK 293T (transient transfection)
Test: cell-based
Type: cell-based
Sequence (P28223 whole entry): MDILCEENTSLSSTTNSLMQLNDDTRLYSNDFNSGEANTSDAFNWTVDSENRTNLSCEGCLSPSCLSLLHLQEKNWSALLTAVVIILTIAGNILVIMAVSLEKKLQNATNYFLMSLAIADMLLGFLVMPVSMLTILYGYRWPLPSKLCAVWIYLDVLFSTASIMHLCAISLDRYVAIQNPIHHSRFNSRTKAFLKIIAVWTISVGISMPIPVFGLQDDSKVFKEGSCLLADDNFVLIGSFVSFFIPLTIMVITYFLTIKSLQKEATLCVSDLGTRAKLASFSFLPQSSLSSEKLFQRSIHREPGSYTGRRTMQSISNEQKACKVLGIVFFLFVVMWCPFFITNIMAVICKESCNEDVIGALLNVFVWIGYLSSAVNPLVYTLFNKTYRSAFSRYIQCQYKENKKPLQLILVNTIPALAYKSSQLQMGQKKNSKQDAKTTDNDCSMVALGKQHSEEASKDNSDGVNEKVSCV
Quantity kind: EC50 (nM)
The answer is to be given in nM; state only the numeric part.

Ask | Give recorded EC50 with 5-HT2AR (Homo sapiens, UniProt P28223) for the following compound: COc1cc(CCNC2COc3ccccc32)c(OC)cc1Br (racemic) [(±)-4c]
Reply | 24.5

---

Biological target: 5-HT2AR (Homo sapiens, UniProt P28223)
Construct: expressed in transfected cells; host or cells: HEK 293T (transient transfection)
Assay: cell-based
Type: cell-based
Conditions: HEK-293T, read-out: β-arr2 Emax (%) [CI]
Sequence (P32121 whole entry): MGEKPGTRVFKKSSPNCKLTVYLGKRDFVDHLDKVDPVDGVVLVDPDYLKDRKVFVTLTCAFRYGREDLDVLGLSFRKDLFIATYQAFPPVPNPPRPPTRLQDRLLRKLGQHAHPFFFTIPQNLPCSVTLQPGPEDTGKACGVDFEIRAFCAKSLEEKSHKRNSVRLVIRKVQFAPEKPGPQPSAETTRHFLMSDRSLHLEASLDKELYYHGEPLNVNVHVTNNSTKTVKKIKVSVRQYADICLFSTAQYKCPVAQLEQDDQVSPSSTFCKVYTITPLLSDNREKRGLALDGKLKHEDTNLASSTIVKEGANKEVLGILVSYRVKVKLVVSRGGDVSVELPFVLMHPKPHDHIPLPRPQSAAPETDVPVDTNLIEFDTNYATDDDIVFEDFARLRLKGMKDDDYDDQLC
Sequence (P28223 whole entry): as the sequence (P28223 whole entry) above
Quantity kind: Emax (%)
The answer is to be given in %; state only the numeric part.

>>> df
                            compound  experimental_value
0  COc1cc(CCNCc2cccc(O)c2)c(OC)cc1Br                 112

Ask | Could you share which Emax value was measured for COc1cc(CCNCc2ccccc2OC)c(OC)cc1C#N ?
Reply | 161

Ask | Again, but for CCN(CC)C(=O)[C@@H]1C=C2c3cccc4[nH]cc(c34)C[C@H]2N(C)C1 [LSD, lysergic acid diethylamide, reference compound]
Reply | 99.7

Ask | Again, but for COc1cccc(CNCCc2cc(OC)c(Br)cc2OC)c1
Reply | 113
